Please provide measured K1 for the entries that follow.
Tested on: SV2A
protocol: Brain PET imaging with 1TC kinetic modeling
recorded.conditions: Anterior cingulate

Reported K1 ( Cc1nccn1CN1C[C@@H](c2cc(F)cc([18F])c2)CC1=O [[^18F]SDM-16] ) = 0.15 ± 0.01 mL/cm^3 per min

Quick note, K1 for [11CH3]n1cncc1CN1C[C@@H](c2cc(F)cc(F)c2)CC1=O [[^11C]UCB-A] landed at 0.15 ± 0.03 mL/cm^3 per min

get_value(item= [11CH3]c1cnccc1CN1C[C@@H](c2cc(F)c(F)c(F)c2)CC1=O [[^11C]UCB-J] , readout=K1) returns 0.73 ± 0.20 mL/cm^3 per min

What the record says about Cc1cnccc1CN1C[C@@H](c2cc(F)cc([18F])c2)CC1=O [[^18F]SynVesT-1] : K1 is 1.05 ± 0.66 mL/cm^3 per min
